- tested_system: Fibroblast growth factor 10 (Homo sapiens) (UniProt O15520)
- Sequence (O15520 whole entry, looked up): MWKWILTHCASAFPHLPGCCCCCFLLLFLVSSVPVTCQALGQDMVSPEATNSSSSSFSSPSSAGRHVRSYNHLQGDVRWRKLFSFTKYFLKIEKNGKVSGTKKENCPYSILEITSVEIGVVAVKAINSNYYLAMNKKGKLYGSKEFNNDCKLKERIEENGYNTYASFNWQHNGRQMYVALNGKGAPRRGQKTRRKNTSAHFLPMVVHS
- protocol_details: compounds binding fibroblast growth factor 10 – biochemical, small-molecule microarray, 635 nm fluorescence, primary screen (AID 1102)
- condition_notes: FGF10 binding, fluorescence 635 nm, higher = more signal
For each record, write down the corresponding composite z-score.
Give the figure only, with no unit attached.

Prompt: Give composite z-score for COC(=O)[C@@]1(Cc2ccc(F)cc2)[C@H]2c3cc(C(=O)N4CCCC4)n(CCc4c[nH]c5ccccc45)c3C[C@H]2CN1C(=O)c1ccccc1 tested on Fibroblast growth factor 10 (Homo sapiens) (UniProt O15520).
Completion: 0.894

Prompt: Give composite z-score for O=C1O[C@@H](c2ccccc2)[C@@H](c2ccccc2)N2[C@@H](c3ccc(O)cc3)[C@]3(C(=O)Nc4ccc(C#CCCO)cc43)[C@@H](C(=O)N3CCN(c4ncccn4)CC3)[C@H]12 tested on Fibroblast growth factor 10 (Homo sapiens) (UniProt O15520).
Completion: 1.4

Prompt: Give composite z-score for COCCOC(=O)N1C(=O)[C@@]2(c3ccccc31)[C@H](C(=O)NC[C@H](O)c1ccccc1)[C@H]1C(=O)O[C@H](c3ccccc3)[C@H](c3ccccc3)N1[C@@H]2c1ccc(O)cc1 tested on Fibroblast growth factor 10 (Homo sapiens) (UniProt O15520).
Completion: 1.42

Prompt: Give composite z-score for O=C1CS(=O)(=O)C(c2cccc([N+](=O)[O-])c2)N1c1ccccc1 (centres undefined) tested on Fibroblast growth factor 10 (Homo sapiens) (UniProt O15520).
Completion: 1.03

====

- protocol_details: probe aNOTCH3 binding on compound microarray – biochemical, small-molecule microarray, 635/667 nm fluorescence, primary screen (AID 1120);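 further: probe is a biotin-tagged antibody raised against NOTCH3 rather than NOTCH3 protein; score merges spot fluorescence near 667 nm with spot signal to noise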
- condition_notes: higher = more signal
endpoint_label: composite z-score
Give the figure only, with no unit attached.

Prompt: Tell me composite z-score reported for Cc1ccccc1C(O)C1C=CC2C(=O)NC(=O)C2N1Nc1ccccn1 (configuration not stated)
Completion: -0.15

Prompt: Tell me composite z-score reported for O=C1C2C=CC(C(O)c3ccco3)N(Nc3ccccc3F)C2C(=O)N1c1ccccc1 (configuration not stated)
Completion: 0.101

Prompt: Tell me composite z-score reported for NC(=O)NCC#Cc1ccc2c(c1)[C@]1(C(=O)N2)[C@H](c2ccccc2OCCO)N2[C@H](c3ccccc3)[C@H](c3ccccc3)OC(=O)[C@H]2[C@@H]1C(=O)O
Completion: -0.245

Prompt: Tell me composite z-score reported for CO[C@H]1O[C@H](CO)[C@@H](OC(=O)CCc2ccccc2)[C@@H]2OC(=O)[C@@H](Cc3ccccc3)C/C=C/C[C@H](Cc3ccccc3)C(=O)O[C@@H]12
Completion: -0.0014

Prompt: Tell me composite z-score reported for COCCOC(=O)N1C(=O)[C@@]2(c3cc(C#CCC(C(=O)OC)C(=O)OC)ccc31)[C@H](c1ccc(OCCO)cc1)N1[C@H](c3ccccc3)[C@H](c3ccccc3)OC(=O)[C@H]1[C@@H]2C(=O)N1CCc2cc(OC)c(OC)cc2C1
Completion: 0.0351

Prompt: Tell me composite z-score reported for CCCC[C@@H]1C[C@H]1[C@@H](NC(=O)c1cccs1)c1ccccc1C(F)(F)F
Completion: 0.265

Prompt: Tell me composite z-score reported for C=CCC(OC(C)=O)[C@@H]1[C@@H](N(Cc2ccc(-c3cccc(C(F)(F)F)c3)o2)C(=O)Cc2ccc(OC)cc2)c2cc(OCCCO)ccc2N1C(=O)c1ccc(-c2ccccc2)cc1 (some centres not stated)
Completion: 0.0711
